Values compiled from PubChem BioAssay AID2060886.

Answer each item with its documented viability, T/C.
Tested on: 653999-131-R-J2-PDC complex spheroids, growth inhibition;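 further: spheroids exposed to the agents for seven days before the readout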
Assay: Anticancer human tumor 653999-131-R-J2-PDC patient-derived lung adenocarcinoma cell line growth inhibition [RAS]
Settings: second compound 0.316 µM; first compound 10 µM; hits give low values
Answer in %, number only, no unit symbol.

Record request: viability, T/C value, item CC(C)NCC(C(=O)N1CCN(c2ncnc3c2C(C)CC3O)CC1)c1ccc(Cl)cc1 (stereo not given) + C#Cc1c(F)ccc2cc(O)cc(-c3ncc4c(N5CC6CCC(C5)N6)nc(OCC56CCCN5CC(F)C6)nc4c3F)c12
20.5

Record request: viability, T/C value, item C[C@@H](NC(=O)c1ncnc(N)c1Cl)c1ncc(C(=O)Nc2cc(C(F)(F)F)c(Cl)cn2)s1 + C#Cc1c(F)ccc2cc(O)cc(-c3ncc4c(N5CC6CCC(C5)N6)nc(OCC56CCCN5CC(F)C6)nc4c3F)c12
69.1

Record request: viability, T/C value, item CC(Nc1ccc2c(c1)OCCn1cc(N3C(=O)OCC3C(F)F)nc1-2)C(N)=O (stereo not given) + C=CC(=O)N1CCN(c2nc(OCC3CCCN3C)nc3c(F)c(-c4nc(N)cc(C)c4C(F)(F)F)c(Cl)cc23)C(C)C1
26.9

Record request: viability, T/C value, item CC(=O)OC12COC1CC(O)C1(C)C(=O)C(O)C3=C(C)C(OC(=O)C(O)C(NC(=O)OC(C)(C)C)c4ccccc4)CC(O)(C(OC(=O)c4ccccc4)C21)C3(C)C (stereo not given) + C#Cc1c(F)ccc2cc(O)cc(-c3ncc4c(N5CC6CCC(C5)N6)nc(OCC56CCCN5CC(F)C6)nc4c3F)c12
42.6

Record request: viability, T/C value, item CC(=O)OC12COC1CC(O)C1(C)C(=O)C(O)C3=C(C)C(OC(=O)C(O)C(NC(=O)OC(C)(C)C)c4ccccc4)CC(O)(C(OC(=O)c4ccccc4)C21)C3(C)C (stereo not given) + C=CC(=O)N1CCN(c2nc(OCC3CCCN3C)nc3c(F)c(-c4nc(N)cc(C)c4C(F)(F)F)c(Cl)cc23)C(C)C1
84.1

Record request: viability, T/C value, item Cc1nc(N2CCC3(CC2)COC(C)C3N)c(CO)nc1Sc1ccnc(N)c1Cl (stereo not given) + C=CC(=O)N1CCN(c2nc(OCC3CCCN3C)nc3c(F)c(-c4nc(N)cc(C)c4C(F)(F)F)c(Cl)cc23)C(C)C1
73.9

Record request: viability, T/C value, item CC(C)NCC(C(=O)N1CCN(c2ncnc3c2C(C)CC3O)CC1)c1ccc(Cl)cc1 (stereo not given) + C=CC(=O)N1CCN(c2nc(OCC3CCCN3C)nc3c(F)c(-c4nc(N)cc(C)c4C(F)(F)F)c(Cl)cc23)C(C)C1
39.6

Record request: viability, T/C value, item CC1(O)CCCC1n1c(=O)c(C(F)F)cc2cnc(NC3CCN(S(C)(=O)=O)CC3)nc21 (stereo not given) + C=CC(=O)N1CCN(c2nc(OCC3CCCN3C)nc3c(F)c(-c4nc(N)cc(C)c4C(F)(F)F)c(Cl)cc23)C(C)C1
27.8

Record request: viability, T/C value, item Cc1nc(N2CCC3(CC2)COC(C)C3N)c(CO)nc1Sc1ccnc(N)c1Cl (stereo not given) + C#Cc1c(F)ccc2cc(O)cc(-c3ncc4c(N5CC6CCC(C5)N6)nc(OCC56CCCN5CC(F)C6)nc4c3F)c12
47.9

Record request: viability, T/C value, item CCC(CC)c1cc(NC2CCC(N)C2)n2nccc2n1 (stereo not given) + C#Cc1c(F)ccc2cc(O)cc(-c3ncc4c(N5CC6CCC(C5)N6)nc(OCC56CCCN5CC(F)C6)nc4c3F)c12
17.3
